- assaySummary: Plasma concentration in CD1 mouse at 10 mg/kg, ip measured after 2 hrs by LC-MS/MS analysis
- Type: ADME, organism-based
assayReadout: concentration at 2 h (µM)

1: O=c1c2cn(C3COC3)nc2nc(SCc2cccc(F)c2)n1-c1ccccc1
2: O=c1c2cn(CC3COC3)nc2nc(SCc2cccc(F)c2)n1-c1ccccc1
For this pair, 1 and 2 , which shows a numerically higher concentration at 2 h? To answer, give the label that identifies your chosen option.
1

* * *

- assaySummary: Plasma concentration in CD1 mouse at 10 mg/kg, ip measured after 4 hrs by LC-MS/MS analysis
- Format: ADME, organism-based
assayReadout: concentration at 4 h (nM)

P: O=c1c2cn(C3COC3)nc2nc(SCc2cccc(F)c2)n1-c1ccccc1
Q: O=c1c2cn(CC3COC3)nc2nc(SCc2cccc(F)c2)n1-c1ccccc1
Dear colleague, could you let me know whether P or Q has the lower recorded concentration at 4 h? Thanks. Returns: label corresponding to the selected item.
Q
